- measurement.description: In vivo gentamicin release / pharmacokinetics after tail vein injection
- Parameters: species or system Wistar rats
- conditions: male, Wistar, rat, plasma, iv, 2 mg
property: Tmax (h)
Report the figure in h without appending any unit label.

Ask: Return reported Tmax; argument: CNC(C)C1CCC(N)C(OC2C(N)CC(N)C(OC3OCC(C)(O)C(NC)C3O)C2O)O1 (stereo not shown) [Pure drug, Gentamicin]
Result: 1

====

- measurement.description: In vivo gentamicin release / pharmacokinetics after tail vein injection
- Parameters: species or system Wistar rats
- conditions: male, Wistar, rat, plasma, iv, 2 mg
property: clearance

Ask: Return reported clearance; argument: CNC(C)C1CCC(N)C(OC2C(N)CC(N)C(OC3OCC(C)(O)C(NC)C3O)C2O)O1 (stereo not shown) [Pure drug, Gentamicin]
Result: 5 mL/h/kg
